Target: T1, Anti-CD28 Fab (SEQ ID NOs: 202, 203)
T1 construct: biotinylated and captured on neutravidin coated plates in the phage ELISA
T1 sequence (VH, as listed by the source, chain 1 of 2): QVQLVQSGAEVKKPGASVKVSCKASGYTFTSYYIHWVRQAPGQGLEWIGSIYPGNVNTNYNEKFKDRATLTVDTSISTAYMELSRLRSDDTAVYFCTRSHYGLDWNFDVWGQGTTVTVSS
T1 sequence (VL, as listed by the source, chain 2 of 2): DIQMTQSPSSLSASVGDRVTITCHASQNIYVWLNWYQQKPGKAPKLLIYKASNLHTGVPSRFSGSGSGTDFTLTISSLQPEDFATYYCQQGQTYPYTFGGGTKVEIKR
Assay: phage ELISA, Fab on plate, CD28 antigen as competitor
Consider the following binders; for each one, report its Anti-CD28 Fab signal in the presence of CD28.
Please state the value as a number alone, without comment.

Qu. What measured Anti-CD28 Fab signal in the presence of CD28 goes with YCAGHALEYMGKCL [Phage-657] ?
Ans. 0.06

Qu. What measured Anti-CD28 Fab signal in the presence of CD28 goes with YCVGHLPQYMQKCL [Phage-599] ?
Ans. 0.06

Qu. What measured Anti-CD28 Fab signal in the presence of CD28 goes with YCAGHAPEYISKCL [Phage-702] ?
Ans. 0.07

Qu. What measured Anti-CD28 Fab signal in the presence of CD28 goes with YCDGHLLQYMHKCL [Phage-644] ?
Ans. 0.07

Qu. What measured Anti-CD28 Fab signal in the presence of CD28 goes with YCNGHLPEYMSKCI [Phage-618] ?
Ans. 0.07

Qu. What measured Anti-CD28 Fab signal in the presence of CD28 goes with YCAGHSAEYMSKCL [Phage-612] ?
Ans. 0.07

Qu. What measured Anti-CD28 Fab signal in the presence of CD28 goes with YCEGHLPMYMQKCL [Phage-660] ?
Ans. 0.08

Qu. What measured Anti-CD28 Fab signal in the presence of CD28 goes with YCEGHLKEYMQKCL [Phage-714] ?
Ans. 0.07

Qu. What measured Anti-CD28 Fab signal in the presence of CD28 goes with YCDGHLPEYIAKCQ [Phage-600] ?
Ans. 0.07

Qu. What measured Anti-CD28 Fab signal in the presence of CD28 goes with YCDGHSPAYLQKCL [Phage-673] ?
Ans. 0.06

Qu. What measured Anti-CD28 Fab signal in the presence of CD28 goes with YCEGHAGVYMAKCL [Phage-708] ?
Ans. 0.05

Qu. What measured Anti-CD28 Fab signal in the presence of CD28 goes with YCDGHSETYLWKCL [Phage-631] ?
Ans. 0.1

Qu. What measured Anti-CD28 Fab signal in the presence of CD28 goes with YCEGHLPAYMWKCL [Phage-659] ?
Ans. 0.08

Qu. What measured Anti-CD28 Fab signal in the presence of CD28 goes with YCEGHMEKYMEKCL [Phage-641] ?
Ans. 0.11

Qu. What measured Anti-CD28 Fab signal in the presence of CD28 goes with YCEGHSYQYMQKCL [Phage-715] ?
Ans. 0.06

Qu. What measured Anti-CD28 Fab signal in the presence of CD28 goes with YCDGHSWEYLGKCL [Phage-703] ?
Ans. 0.05

Qu. What measured Anti-CD28 Fab signal in the presence of CD28 goes with YCDGHLPRYMAKCL [Phage-642] ?
Ans. 0.1

Qu. What measured Anti-CD28 Fab signal in the presence of CD28 goes with YCDGHEARYMQKCL [Phage-698] ?
Ans. 0.07

Qu. What measured Anti-CD28 Fab signal in the presence of CD28 goes with YCEGHLAEYMNKCL [Phage-690] ?
Ans. 0.07

Qu. What measured Anti-CD28 Fab signal in the presence of CD28 goes with YCAGHTSEYMSKCL [Phage-634] ?
Ans. 0.07

Qu. What measured Anti-CD28 Fab signal in the presence of CD28 goes with YCDGHLALYMWKCL [Phage-637] ?
Ans. 0.17

Qu. What measured Anti-CD28 Fab signal in the presence of CD28 goes with YCDGHANAYIWKCL [Phage-742] ?
Ans. 0.09

Qu. What measured Anti-CD28 Fab signal in the presence of CD28 goes with YCSEHQIIFIQKCL [Phage-654] ?
Ans. 0.08

Qu. What measured Anti-CD28 Fab signal in the presence of CD28 goes with YCEGHIPMYMLKCM [Phage-743] ?
Ans. 0.09

Qu. What measured Anti-CD28 Fab signal in the presence of CD28 goes with YCAGHAEEYLEKCL [Phage-610] ?
Ans. 0.15

Qu. What measured Anti-CD28 Fab signal in the presence of CD28 goes with YCDGLFQLYMMKCL [Phage-624] ?
Ans. 0.07

Qu. What measured Anti-CD28 Fab signal in the presence of CD28 goes with YCEGHTQEYMQKCL [Phage-688] ?
Ans. 0.07

Qu. What measured Anti-CD28 Fab signal in the presence of CD28 goes with YCEGHAQEYMAKCL [Phage-744] ?
Ans. 0.08

Qu. What measured Anti-CD28 Fab signal in the presence of CD28 goes with YCEGHMSIYMQKCL [Phage-683] ?
Ans. 0.07

Qu. What measured Anti-CD28 Fab signal in the presence of CD28 goes with YCEGHQPAYMEKCL [Phage-677] ?
Ans. 0.06

Qu. What measured Anti-CD28 Fab signal in the presence of CD28 goes with YCEGHSAEYIGKCL [Phage-738] ?
Ans. 0.07
